- system: MAPK14 (UniProt Q16539)
- Sequence (Q16539 whole entry, looked up): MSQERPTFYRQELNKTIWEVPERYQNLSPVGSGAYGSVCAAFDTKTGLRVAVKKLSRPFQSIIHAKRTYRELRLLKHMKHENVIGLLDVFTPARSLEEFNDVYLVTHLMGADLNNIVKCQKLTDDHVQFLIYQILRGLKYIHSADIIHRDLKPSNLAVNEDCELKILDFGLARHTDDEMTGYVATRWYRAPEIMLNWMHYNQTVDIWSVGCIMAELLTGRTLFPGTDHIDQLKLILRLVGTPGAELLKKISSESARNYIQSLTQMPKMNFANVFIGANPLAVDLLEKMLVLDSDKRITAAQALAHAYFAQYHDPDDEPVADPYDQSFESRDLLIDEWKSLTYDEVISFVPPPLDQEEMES
- assay name: p38-alpha Inhibition
- condition: concentration not given here
Collected inhibition values appear next to each entry.

Worked cases, answers included:
[
  {
    "compound smiles": "O=[N+]([O-])c1ccc2nc(-c3ccccc3F)nc(Nc3ccncc3)c2c1",
    "system": "MAPK14 (UniProt Q16539)",
    "inhibition": "> 90%"
  },
  {
    "compound smiles": "COc1cc2nc(-c3ccccc3Cl)nc(Nc3ccncc3)c2cc1OC",
    "system": "MAPK14 (UniProt Q16539)",
    "inhibition": "> 90%"
  },
  {
    "compound smiles": "COc1ccc(C(=O)Nc2ccc3nc(-c4ccccc4F)nc(Nc4ccncc4)c3c2)cc1",
    "system": "MAPK14 (UniProt Q16539)",
    "inhibition": "> 90%"
  },
  {
    "compound smiles": "COc1cccc(CNc2ccc3c(Nc4ccncc4)nc(-c4ccc(F)cc4)nc3c2)c1",
    "system": "MAPK14 (UniProt Q16539)",
    "inhibition": "> 90%"
  },
  {
    "compound smiles": "Nc1ccc2nc(-c3ccccc3F)nc(Nc3ccncc3)c2c1",
    "system": "MAPK14 (UniProt Q16539)",
    "inhibition": "> 90%"
  }
]

For the molecule `Nc1ccc2c(Nc3ccncc3)nc(-c3ccccc3F)nc2c1` , what inhibition is on record?
> 90%

Entry to check: `COc1cccc(CNc2ccc3nc(-c4ccccc4F)nc(Nc4ccncc4)c3c2)c1`
> 90%

Here is the next molecule: `Nc1ccc2c(Nc3ccncc3)nc(-c3ccc(F)cc3)nc2c1`
> 90%

The reported numbers originate from the Kinase Knowledgebase extract (Sharma et al. 2016).
